Data provenance is PubChem BioAssay AID330.

Exercise: state measured T/C for each of the compounds provided.
Tested on: P388 leukemia ip, CD2F1 mice, survival T/C
Assay: NCI In Vivo Anticancer Drug Screen. Data for tumor model P388 Leukemia (intraperitoneal) in CD2F1 (CDF1) mice
Conditions: endpoint: median survival time; dose: 25.0 mg/kg/injection; schedule: Q01DX009 (ip); vehicle: other; higher = longer survival
Inconclusive results and toxic doses are left out.

// CCOC(=O)N1CCc2cc(OC)c(OC)cc2C1(O)Cc1cc(OC)c(OC)cc1Br (stereo unspecified) : T/C value = 109 % of control

Value of T/C reported for the compound CSc1ccnc2ccccc12 is 118 % of control

Quick note, T/C for [O-]c1cc2c3c(c1)c1cc4c(cc1c[n+]3C=C2)OCO4 landed at 123 % of control

Measured T/C, Cc1ccc(S(=O)(=O)NCCC(=O)Nc2ccccc2)cc1 : 102 % of control

Lab note: measured T/C of C=CS(C=C)=NS(=O)(=O)c1ccc(C)cc1 was 117 % of control

The recorded T/C for O=C(NC(Cc1ccsc1)C(=O)O)c1ccccc1 (stereo unspecified) is 102 % of control

Query O=C(CNO)OCc1ccccc1 yields T/C of 97 % of control

T/C for CC(=O)c1ccc2ccccc2n1 is 102 % of control

Item: CNC(=S)NNc1cccc([N+](=O)[O-])c1 | T/C: 96 % of control

Value of measured T/C for the entry NNS(=O)(=O)c1cccc([N+](=O)[O-])c1 : 98 % of control

Sample CCOC(=O)/C(=C\c1cccc(OC)c1OC)CC(=O)O ; T/C observed: 102 % of control

----------
Test system: P388 leukemia ip, CD2F1 mice, survival T/C
Test: NCI In Vivo Anticancer Drug Screen. Data for tumor model P388 Leukemia (intraperitoneal) in CD2F1 (CDF1) mice
Conditions: endpoint: median survival time; dose: 100.0 mg/kg/injection; schedule: Q04DX003 (ip); vehicle: saline with Tween-80
Inconclusive results and toxic doses are left out. Rule for the calls: active = survival T/C of 150% or more; inactive = T/C below 125% in these data.
One label from this list, please: active, inactive

[Q] Test call for this molecule, please: O=C(C(=S)c1ccccc1)N(Cc1ccccc1)Cc1ccccc1
[A] inactive

[Q] # outcome recorded in this test, key = CN(Cc1cnc2nc(N)nc(N)c2n1)c1c(Cl)cc(C(=O)NC(CCC(=O)O)C(=O)O)cc1Cl (stereo unspecified)
[A] active

[Q] What is the recorded call for this molecule in the test? COc1ccc(/C=N\O)cc1OC
[A] inactive

[Q] Identify the outcome logged in this assay for the molecule shown: Cc1cc(NC(=O)NCc2ccc(N3C(N)=NC(N)=NC3(C)C)cc2)ccc1S(=O)(=O)F
[A] active

[Q] What call does the record list for O=C(Nc1ccc2c(c1)Cc1cccc(NC(=O)C(Cl)Cl)c1-2)C(Cl)Cl ?
[A] inactive

[Q] Tell me the recorded outcome of this test for COC(=O)N1c2ccccc2C=C(NC(C)=O)C1C#N (stereo unspecified) .
[A] inactive

[Q] Kindly provide the recorded test outcome for the following molecule: C=C1C(=O)OCC1C(=O)OCC (stereo unspecified)
[A] inactive

[Q] # outcome recorded in this test, key = ClCC(CCl)(CCl)CCl
[A] inactive

[Q] Each molecule tested received a call. Report the one for O=[N+]([O-])c1ccc2c(N=Nc3ccc4ccccc4c3O)c(O)cc(S(=O)(=O)O)c2c1 .
[A] inactive

[Q] Outcome logged for O=[N+]([O-])c1ccc(/C=N\Nc2ccc([N+](=O)[O-])cn2)cc1 in this assay:
[A] inactive

[Q] Recorded test call requested for CCOC(=S)c1cc(C(=S)OCC)cc(C(C)(C)C)c1
[A] inactive
